Target: T1, CD137-hisFc fusion protein (Sino Biological Cat 10041-H03H) (human, UniProt Q07011 24-186)
T1 construct: Bought; also called recombinant human CD137 (fused with human Fc and His tag); not shown: His tag and human Fc
Assay: BLI Octet, Fab
VALUE_KIND: kon (M⁻¹ s⁻¹)
Field: numeric (M⁻¹ s⁻¹). Do not append units.

{"BINDER": "Fab 5323 (Fab, V domains shown, Fab from E. coli; also called VH19/VL19) VH: EVQLVESGGGLVQPGGSLRLSCAASGFSLSTSGVGVGWIRQAPGKGLEWIGEIYHSGSTYYSPSLKSRVTISRDNSKNTLYLQLNSLKAEDTAVYYCAREGSDVVTGDWFAYWGQGTLVTVSS VL: DIQLTQSPSSLSASVGDRVTITCRASQGISSVLAWYQQKPGKAPKLLIYDASSLESGVPSRFSGSGSGTDFTLTISSLQPEDFATYYCQQGYSLWTFGQGTKVEIKR", "kon / M⁻¹ s⁻¹": 782000}

Req: Would you kindly share the measured kon for Fab 7135 (Fab, V domains shown, Fab from E. coli; also called VH57/VL57) VH: EVQLVESGGGLVQPGGSLRLSCAASGFSLSTGGVGVGWIRQAPGKGLEWVSSISGSGGSTYYADSVKGRFTISRDNSKNTLYLQLNSLRAEDTAVYYCAREGSDTVLGDWFAYWGQGTLVTVSS VL: DIQLTQSPSSLSASVGDRVTITCRASQGVSSYLAWYQQKPGKAPKLLIYDASNLETGVPSRFSGSGSGTDFTLTISSLQPEDFATYYCQQYYTTPLTFGQGTKVEIKR ?
Resp: 102000
